experiment: T1-relaxivity with Minispec pc 20 (20 MHz, 0.47T) at 37° C. in water and human plasma; assay type: physicochemical; conditions: 20 MHz, water
readoutLabel: T1-relaxivity (L/mmol/s)

Req: What value of T1-relaxivity has been recorded for this entry: O=C([O-])CN1CCN(CC(=O)[O-])CCN(CC(O)CNC(=O)COCCC(F)(F)C(F)(F)C(F)(F)C(F)(F)C(F)(F)C(F)(F)C(F)(F)C(F)(F)F)CCN(CC(=O)[O-])CC1.[Gd+3] (stereo not shown) [Example 2c]
Resp: 19

1. O=C([O-])CN1CCN(CC(=O)[O-])CCN(CC(O)COCCC(F)(F)C(F)(F)C(F)(F)C(F)(F)C(F)(F)C(F)(F)C(F)(F)C(F)(F)F)CCN(CC(=O)[O-])CC1.[Gd+3] (stereo not shown) [Example 3c]
2. CCN(CC(=O)NCC(O)CN1CCN(CC(=O)[O-])CCN(CC(=O)[O-])CCN(CC(=O)[O-])CC1)S(=O)(=O)C(F)(F)C(F)(F)C(F)(F)C(F)(F)C(F)(F)C(F)(F)C(F)(F)C(F)(F)F.[Gd+3] (stereo not shown) [Example 1c]
3. CCN(CC(=O)NCC(O)CN1CCN(CC(=O)[O-])CCN(CC(=O)[O-])CCN(CC(=O)[O-])CC1)S(=O)(=O)C(F)(F)C(F)(F)C(F)(F)C(F)(F)C(F)(F)C(F)(F)C(F)(F)C(F)(F)F.[Mn+2].[Na+] (stereo not shown) [Example 1e]
Req: Rank descending by T1-relaxivity. Put the labels in the order asked and list them.
Resp: 2, 1, 3
(2: 41 L/mmol/s, 1: 15.2 L/mmol/s, 3: 2.7 L/mmol/s)

---

Test: T1-relaxivity with Minispec pc 20 (20 MHz, 0.47T) at 37° C. in water and human plasma
Assay type: physicochemical
Settings: T1-relaxivity, Minispec pc 20 (20 MHz, 0.47 T), in water
Procedure: The relaxivity of the following compounds was determined with a Minispec pc 20 (20 MHz, 0.47T) at 37° C. in water and human plasma and compared to that of Gd-DTPA-polylysine and Magnevist^(R) as comparison substances.
readoutLabel: R^1 [L/mmol * sec] at 0.47 T and 37° C. Water (L/mmol/s)

Req: What value of R^1 [L/mmol * sec] at 0.47 T and 37° C. Water has been recorded for this entry: O=C([O-])CN1CCN(CC(=O)[O-])CCN(CC(O)COCCC(F)(F)C(F)(F)C(F)(F)C(F)(F)C(F)(F)C(F)(F)C(F)(F)C(F)(F)F)CCN(CC(=O)[O-])CC1.[Gd+3] (stereo not shown)
Resp: 15.2

A. CCN(CC(=O)NCC(O)CN1CCN(CC(=O)[O-])CCN(CC(=O)[O-])CCN(CC(=O)[O-])CC1)S(=O)(=O)C(F)(F)C(F)(F)C(F)(F)C(F)(F)C(F)(F)C(F)(F)C(F)(F)C(F)(F)F.[Gd+3] (stereo not shown)
B. O=C([O-])CN1CCN(CC(=O)[O-])CCN(CC(O)CNC(=O)COCCC(F)(F)C(F)(F)C(F)(F)C(F)(F)C(F)(F)C(F)(F)C(F)(F)C(F)(F)F)CCN(CC(=O)[O-])CC1.[Gd+3] (stereo not shown)
C. CNC[C@H](O)[C@@H](O)[C@H](O)[C@H](O)CO.CNC[C@H](O)[C@@H](O)[C@H](O)[C@H](O)CO.O=C([O-])CN(CCN(CC(=O)[O-])CC(=O)O)CCN(CC(=O)[O-])CC(=O)O.[Gd+3] [Magnevist, reference compound]
Req: Rank descending by R^1 [L/mmol * sec] at 0.47 T and 37° C. Water. Put the labels in the order asked and list them.
Resp: A, B, C
